This section presents molecules with their documented inhibition values.
- TARGET SYSTEM: Cathepsin B (Homo sapiens)
- ASSAY NOTES: Inhibition of human liver cathepsin B at 100 uM
Peptide text beside a SMILES is read from it.
The response must be a number in % with no trailing unit.

Sample records with inhibition:
CC(C)C[C@H](NC(=O)[C@H](CC(N)=O)NC(=O)/C=C/C(=O)NCC(=O)NCC(=O)N[C@@H](Cc1ccccc1)C(=O)O)C(=O)N[C@@H](CC(C)C)C(=O)N[C@H](C(N)=O)C(C)C (HELM PEPTIDE1{[O=C(/C=C/C(=O)[*:2])NCC(=O)NCC(=O)N[C@@H](Cc1ccccc1)C(=O)O].N.L.L.V.[am]}$$$$V2.0) = 21
CC(C)C[C@H](NC(=O)[C@H](Cc1ccccc1)NC(=O)[C@H](CC(N)=O)NC(=O)/C=C/C(=O)NCC(=O)NCC(=O)N[C@@H](Cc1ccccc1)C(=O)O)C(=O)N[C@H](C(N)=O)C(C)C (HELM PEPTIDE1{[O=C(/C=C/C(=O)[*:2])NCC(=O)NCC(=O)N[C@@H](Cc1ccccc1)C(=O)O].N.F.L.V.[am]}$$$$V2.0) = 24
CC(C)C[C@H](NC(=O)[C@H](C)NC(=O)/C=C/C(=O)NCC(=O)NCC(=O)N[C@@H](Cc1ccccc1)C(=O)O)C(=O)N[C@@H](CC(C)C)C(=O)N[C@H](C(N)=O)C(C)C (HELM PEPTIDE1{[O=C(/C=C/C(=O)[*:2])NCC(=O)NCC(=O)N[C@@H](Cc1ccccc1)C(=O)O].A.L.L.V.[am]}$$$$V2.0) = 38
CC(C)[C@H](NC(=O)[C@@H](NC(=O)[C@@H](NC(=O)[C@H](CC(N)=O)NC(=O)/C=C/C(=O)NCC(=O)NCC(=O)N[C@@H](Cc1ccccc1)C(=O)O)C1CCCCC1)C(C)C)C(N)=O (HELM PEPTIDE1{[O=C(/C=C/C(=O)[*:2])NCC(=O)NCC(=O)N[C@@H](Cc1ccccc1)C(=O)O].N.[O=C([C@@H](N[*:1])C1CCCCC1)[*:2]].V.V.[am]}$$$$V2.0) = 100
CC(C)C[C@H](NC(=O)[C@H](CCC(N)=O)NC(=O)/C=C/C(=O)N[C@@H](C)C(=O)NCC(=O)N[C@@H](Cc1ccccc1)C(=O)O)C(=O)N[C@H](C(=O)N[C@H](C(N)=O)C(C)C)C(C)C (HELM PEPTIDE1{[C[C@H](NC(=O)/C=C/C(=O)[*:2])C(=O)NCC(=O)N[C@@H](Cc1ccccc1)C(=O)O].Q.L.V.V.[am]}$$$$V2.0) = 23

Qu. Reported inhibition for CC(C)C[C@H](NC(=O)[C@H](Cc1ccccc1)NC(=O)/C=C/C(=O)NCC(=O)NCC(=O)N[C@@H](Cc1ccccc1)C(=O)O)C(=O)N[C@@H](CC(C)C)C(=O)N[C@H](C(N)=O)C(C)C (HELM PEPTIDE1{[O=C(/C=C/C(=O)[*:2])NCC(=O)NCC(=O)N[C@@H](Cc1ccccc1)C(=O)O].F.L.L.V.[am]}$$$$V2.0) : what is it?
Ans. 73
